Tested on: L-allothreonine-aldolase
run description: Inhibitants, stabilizers and coenzyme of L-allothreonine-aldolase
Assay type: biochemical
recorded metric: effect of the agent on L-allothreonine-aldolase

compound: OCCS
test system: L-allothreonine-aldolase
value: Stabilizers
--
compound: [Hg+2]
test system: L-allothreonine-aldolase
value: Inhibitants
--
compound: O=S([O-])[O-].[Na+].[Na+] [sodium sulfite]
test system: L-allothreonine-aldolase
value: Stabilizers
--
compound: O[C@H](CS)[C@H](O)CS (racemic)
test system: L-allothreonine-aldolase
value: Stabilizers
--
compound: [Cu+2]
test system: L-allothreonine-aldolase
value: Inhibitants
--
compound: [Ag+]
test system: L-allothreonine-aldolase
value: Inhibitants
